# target_system: HLA-A*02:01 (Homo sapiens, UniProt P04439, D140Y/D185E/D98H/E176V/E277Q/G131W/G231S/I119V/I121R/I166T/I218V/L300P/L318F/N151K/N90K/P208A/P217A/Q86G/Q94H/R138H/R169H/T345S)
# experiment_summary: MHC binding assay (UV-ligand exchange, anti-β2m ELISA, peptide exchange yield)
# measurement_parameters: binding to HLA-A*02:01
outcome_measure: Peptide exchange (MHC class I binding score, peptide exchange yield)

These recorded examples may help you get a feel for the data.
{"substance": "197 (ALGPEGGRV; listed as Homo sapiens) [compound 197]", "assay_result": "“++” (>20% = ++)"}
{"substance": "547 (TLDITPHTV; listed as Homo sapiens) [compound 547]", "assay_result": "“+++” (>50 = +++)"}
{"substance": "62 (VLLDVSAGQLLM; listed as Homo sapiens) [compound 62]", "assay_result": "“++++” (>75% = ++++)"}
{"substance": "612 (YLYNEGLSV; listed as Homo sapiens) [compound 612]", "assay_result": "“+++” (>50 = +++)"}
{"substance": "111 (YVWGFYPAEV; listed as Homo sapiens) [compound 111]", "assay_result": "“+++” (>50 = +++)"}
{"substance": "185 (FLIDDKGYTL; listed as Homo sapiens) [compound 185]", "assay_result": "“++” (>20% = ++)"}

Query block: Please report Peptide exchange (MHC class I binding score, peptide exchange yield) for the following substance: 81 (FLFSQLQYL; listed as Homo sapiens) [compound 81]
Result block: “++” (>20% = ++)

====

# target_system: HLA-A*02:01 (Homo sapiens, UniProt P04439, D140Y/D185E/D98H/E176V/E277Q/G131W/G231S/I119V/I121R/I166T/I218V/L300P/L318F/N151K/N90K/P208A/P217A/Q86G/Q94H/R138H/R169H/T345S)
# experiment_summary: MHC binding assay (UV-ligand exchange, anti-β2m ELISA, peptide exchange yield)
# measurement_parameters: binding to HLA-A*02:01
outcome_measure: Peptide exchange (MHC class I binding score, peptide exchange yield)

{"substance": "151 (KILQQLVTL; listed as Homo sapiens) [compound 151]", "assay_result": "“+++” (>50 = +++)"}
{"substance": "439 (YLLQEIYGI; listed as Homo sapiens) [compound 439]", "assay_result": "“+++” (>50 = +++)"}
{"substance": "378 (ALGYFVPYV; listed as Homo sapiens) [compound 378]", "assay_result": "“+++” (>50 = +++)"}
{"substance": "43 (VLSSLEINI; listed as Homo sapiens) [compound 43]", "assay_result": "“++” (>20% = ++)"}
{"substance": "30 (LILDWVPYI; listed as Homo sapiens) [compound 30]", "assay_result": "“+++” (>50 = +++)"}
{"substance": "157 (SLNDEVPEV; listed as Homo sapiens) [compound 157]", "assay_result": "“++” (>20% = ++)"}
{"substance": "599 (YLLNDASLISV; listed as Homo sapiens) [compound 599]", "assay_result": "“+++” (>50 = +++)"}

Now look at this entry.
Query block: Please report Peptide exchange (MHC class I binding score, peptide exchange yield) for the following substance: 367 (SLQNHNHQL; listed as Homo sapiens) [compound 367]
Result block: “+++” (>50 = +++)

====

# target_system: HLA-A*02:01 (Homo sapiens, UniProt P04439, D140Y/D185E/D98H/E176V/E277Q/G131W/G231S/I119V/I121R/I166T/I218V/L300P/L318F/N151K/N90K/P208A/P217A/Q86G/Q94H/R138H/R169H/T345S)
# experiment_summary: MHC binding assay (UV-ligand exchange, anti-β2m ELISA, peptide exchange yield)
# measurement_parameters: binding to HLA-A*02:01
outcome_measure: Peptide exchange (MHC class I binding score, peptide exchange yield)

These recorded examples may help you get a feel for the data.
{"substance": "168 (KILDADIQL; listed as Homo sapiens) [compound 168]", "assay_result": "“++++” (>75% = ++++)"}
{"substance": "94 (YLIDIKTIAI; listed as Homo sapiens) [compound 94]", "assay_result": "“++” (>20% = ++)"}
{"substance": "474 (YLDPALELGPRNV; listed as Homo sapiens) [compound 474]", "assay_result": "“+++” (>50 = +++)"}
{"substance": "409 (LLDAMNYHL; listed as Homo sapiens) [compound 409]", "assay_result": "“++” (>20% = ++)"}
{"substance": "517 (LLMPIPEGLTL; listed as Homo sapiens) [compound 517]", "assay_result": "“+++” (>50 = +++)"}
{"substance": "1 (SLMEPPAVLLL; listed as Homo sapiens) [compound 1]", "assay_result": "“+++” (>50 = +++)"}
{"substance": "163 (ALDEMGDLLQL; listed as Homo sapiens) [compound 163]", "assay_result": "“+++” (>50 = +++)"}
{"substance": "104 (STMEQNFLL; listed as Homo sapiens) [compound 104]", "assay_result": "“++++” (>75% = ++++)"}
{"substance": "160 (FLFDEEIEQI; listed as Homo sapiens) [compound 160]", "assay_result": "“+++” (>50 = +++)"}
{"substance": "594 (IMLKGDNITL; listed as Homo sapiens) [compound 594]", "assay_result": "“+++” (>50 = +++)"}

Query block: Please report Peptide exchange (MHC class I binding score, peptide exchange yield) for the following substance: 385 (SLLEQGLVEA; listed as Homo sapiens) [compound 385]
Result block: “++” (>20% = ++)

Query block: Please report Peptide exchange (MHC class I binding score, peptide exchange yield) for the following substance: 521 (MLLTKLPTI; listed as Homo sapiens) [compound 521]
Result block: “+++” (>50 = +++)

Query block: Please report Peptide exchange (MHC class I binding score, peptide exchange yield) for the following substance: 12 (SLWPDPMEV; listed as Homo sapiens) [compound 12]
Result block: “+++” (>50 = +++)

Query block: Please report Peptide exchange (MHC class I binding score, peptide exchange yield) for the following substance: 255 (VLASYNLTV; listed as Homo sapiens) [compound 255]
Result block: “+++” (>50 = +++)

Query block: Please report Peptide exchange (MHC class I binding score, peptide exchange yield) for the following substance: 579 (NLMEMVAQL; listed as Homo sapiens) [compound 579]
Result block: “++” (>20% = ++)

Query block: Please report Peptide exchange (MHC class I binding score, peptide exchange yield) for the following substance: 585 (ALWDLAADKQTL; listed as Homo sapiens) [compound 585]
Result block: “++++” (>75% = ++++)

Query block: Please report Peptide exchange (MHC class I binding score, peptide exchange yield) for the following substance: 453 (KLLEATSAV; listed as Homo sapiens) [compound 453]
Result block: “++” (>20% = ++)

====

# target_system: HLA-A*02:01 (Homo sapiens, UniProt P04439, D140Y/D185E/D98H/E176V/E277Q/G131W/G231S/I119V/I121R/I166T/I218V/L300P/L318F/N151K/N90K/P208A/P217A/Q86G/Q94H/R138H/R169H/T345S)
# experiment_summary: MHC binding assay (UV-ligand exchange, anti-β2m ELISA, peptide exchange yield)
# measurement_parameters: binding to HLA-A*02:01
outcome_measure: Peptide exchange (MHC class I binding score, peptide exchange yield)

These recorded examples may help you get a feel for the data.
{"substance": "492 (SLFDGFADGLGV; listed as Homo sapiens) [compound 492]", "assay_result": "“+++” (>50 = +++)"}
{"substance": "426 (RLADKSVLV; listed as Homo sapiens) [compound 426]", "assay_result": "“+++” (>50 = +++)"}
{"substance": "488 (FLAEDPKVTL; listed as Homo sapiens) [compound 488]", "assay_result": "“+++” (>50 = +++)"}
{"substance": "567 (SLLPLDDIVRV; listed as Homo sapiens) [compound 567]", "assay_result": "“+++” (>50 = +++)"}
{"substance": "289 (VLLEIEDLQV; listed as Homo sapiens) [compound 289]", "assay_result": "“++++” (>75% = ++++)"}

Query block: Please report Peptide exchange (MHC class I binding score, peptide exchange yield) for the following substance: 313 (VLFDDELLMV; listed as Homo sapiens) [compound 313]
Result block: “+++” (>50 = +++)

Query block: Please report Peptide exchange (MHC class I binding score, peptide exchange yield) for the following substance: 365 (YVIDQGETDVYV; listed as Homo sapiens) [compound 365]
Result block: “+++” (>50 = +++)

Query block: Please report Peptide exchange (MHC class I binding score, peptide exchange yield) for the following substance: 304 (MTLGQIYYL; listed as Homo sapiens) [compound 304]
Result block: “+++” (>50 = +++)

Query block: Please report Peptide exchange (MHC class I binding score, peptide exchange yield) for the following substance: 134 (YLQELIFSV; listed as Homo sapiens) [compound 134]
Result block: “+++” (>50 = +++)

Query block: Please report Peptide exchange (MHC class I binding score, peptide exchange yield) for the following substance: 464 (ALNDCIYSV; listed as Homo sapiens) [compound 464]
Result block: “+++” (>50 = +++)

Query block: Please report Peptide exchange (MHC class I binding score, peptide exchange yield) for the following substance: 68 (SLMELPRGLFL; listed as Homo sapiens) [compound 68]
Result block: “++++” (>75% = ++++)

Query block: Please report Peptide exchange (MHC class I binding score, peptide exchange yield) for the following substance: 598 (FLFPHSVLV; listed as Homo sapiens) [compound 598]
Result block: “+++” (>50 = +++)

Query block: Please report Peptide exchange (MHC class I binding score, peptide exchange yield) for the following substance: 42 (VLLQKIVSA; listed as Homo sapiens) [compound 42]
Result block: “+++” (>50 = +++)
